Measured pIC50 accompanies every entry in the list below.
Molecular target: UniProt P03951
pIC50: −log10 of the molar value. Where a name gives a salt, the structure may show the parent alone.

compound: NC[C@H]1CC[C@H](C(=O)N[C@@H](Cc2ccc(-c3ccccc3CN3CCNCC3)cc2)C(=O)Nc2ccc(-c3nnn[nH]3)cc2)CC1 [Example 16, hydrochloride]
pIC50: 8.21
//
compound: NCC(=O)NCC(=O)NCC(=O)Nc1ccccc1-c1ccc(C[C@H](NC(=O)[C@H]2CC[C@H](CN)CC2)C(=O)Nc2ccc(-c3nn[nH]n3)cc2)cc1 [Example 9, hydrochloride]
pIC50: 8.28
//
compound: NC[C@H]1CC[C@H](C(=O)N[C@@H](Cc2ccc(-c3ccccc3NC(=O)C3CCNCC3)cc2)C(=O)Nc2ccc(-c3nnn[nH]3)cc2)CC1 [Example 12, hydrochloride]
pIC50: 8.05

====

Target: human factor XIa (Homo sapiens, UniProt P03951)
Sequence (P03951 388-625 limits assumed): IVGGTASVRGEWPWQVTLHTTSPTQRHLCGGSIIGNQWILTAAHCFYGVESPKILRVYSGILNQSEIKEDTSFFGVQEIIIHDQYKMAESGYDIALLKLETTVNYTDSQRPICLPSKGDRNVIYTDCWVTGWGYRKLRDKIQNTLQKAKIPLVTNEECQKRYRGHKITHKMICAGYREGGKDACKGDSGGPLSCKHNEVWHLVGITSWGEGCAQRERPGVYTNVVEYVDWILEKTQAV
Sequence (P03951 19-387 partner limits assumed): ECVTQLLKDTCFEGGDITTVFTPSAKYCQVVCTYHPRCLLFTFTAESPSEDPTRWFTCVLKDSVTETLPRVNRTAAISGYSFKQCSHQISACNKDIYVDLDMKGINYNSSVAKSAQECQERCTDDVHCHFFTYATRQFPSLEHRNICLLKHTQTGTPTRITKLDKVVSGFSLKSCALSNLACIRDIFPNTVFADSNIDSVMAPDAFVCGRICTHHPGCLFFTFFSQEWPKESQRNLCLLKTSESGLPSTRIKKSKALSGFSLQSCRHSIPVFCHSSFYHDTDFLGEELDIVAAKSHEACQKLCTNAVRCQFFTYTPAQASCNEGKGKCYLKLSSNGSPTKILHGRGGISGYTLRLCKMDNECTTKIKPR
Structures can show the parent of a compound that is named as a salt.
readout: IC50 (nM)

compound: CCN(CC)C(=O)c1ccccc1-c1ccc(C[C@H](NC(=O)[C@H]2CC[C@H](CN)CC2)C(=O)Nc2ccc(-c3nn[nH]n3)cc2)cc1 [Example 3, hydrochloride]
readout: IC50
observed value: 0.7

compound: NC[C@H]1CC[C@H](C(=O)N[C@@H](Cc2ccc(-c3ccccc3N)cc2)C(=O)Nc2ccc(-c3nn[nH]n3)cc2)CC1 [Example 8, hydrochloride]
readout: IC50
observed value: 5.5

compound: NC[C@H]1CC[C@H](C(=O)N[C@@H](Cc2ccc(-c3ccccc3C(=O)N3CCOCC3)cc2)C(=O)Nc2ccc(-c3nn[nH]n3)cc2)CC1 [Example 2, hydrochloride]
readout: IC50
observed value: 2.8

compound: CN(C)CC(=O)Nc1ccccc1-c1ccc(C[C@H](NC(=O)[C@H]2CC[C@H](CN)CC2)C(=O)Nc2ccc(-c3nn[nH]n3)cc2)cc1 [Example 10, hydrochloride]
readout: IC50
observed value: 7.2

compound: NC[C@H]1CC[C@H](C(=O)N[C@@H](Cc2ccc(-c3ccccc3CO)cc2)C(=O)Nc2ccc(-c3nn[nH]n3)cc2)CC1 [Example 14, hydrochloride]
readout: IC50
observed value: 4.2

compound: NC[C@H]1CC[C@H](C(=O)N[C@@H](Cc2ccc(-c3ccccc3C(=O)NC3CCNCC3)cc2)C(=O)Nc2ccc(-c3nn[nH]n3)cc2)CC1 [Example 6, hydrochloride]
readout: IC50
observed value: 39

compound: NC[C@H]1CC[C@H](C(=O)N[C@@H](Cc2ccc(-c3ccccc3C(=O)N3CCCCC3)cc2)C(=O)Nc2ccc(-c3nn[nH]n3)cc2)CC1 [Example 4, hydrochloride]
readout: IC50
observed value: 1.3

compound: CNC(=O)c1ccccc1-c1ccc(C[C@H](NC(=O)[C@H]2CC[C@H](CN)CC2)C(=O)Nc2ccc(-c3nn[nH]n3)cc2)cc1 [Example 7, hydrochloride]
readout: IC50
observed value: 12

compound: NC[C@H]1CC[C@H](C(=O)N[C@@H](Cc2ccc(-c3ccccc3NC(=O)C3CCOCC3)cc2)C(=O)Nc2ccc(-c3nn[nH]n3)cc2)CC1 [Example 11, hydrochloride]
readout: IC50
observed value: 3

====

Record: IC50 reported on human factor XIa (Homo sapiens, UniProt P03951).
Where a name gives a salt, the structure may show the parent alone.

molecule: CC(C)Oc1ccccc1-c1ccc(C[C@H](NC(=O)[C@H]2CC[C@H](CN)CC2)C(=O)Nc2ccc(-c3nc(C(F)(F)C(F)(F)C(=O)O)n[nH]3)cc2)cc1 [Example 17, hydrochloride]
value units: nM
IC50: 1.2
--
molecule: NC[C@H]1CC[C@H](C(=O)N[C@@H](Cc2ccc(-c3ccccc3C(N)=O)cc2)C(=O)Nc2ccc(-c3nc(C(F)(F)C(F)(F)C(=O)O)n[nH]3)cc2)CC1 [Example 15, hydrochloride]
value units: nM
IC50: 12
--
molecule: NC[C@H]1CC[C@H](C(=O)N[C@@H](Cc2ccc(-c3ccccc3C(=O)N3CCNCC3)cc2)C(=O)Nc2ccc(-c3nn[nH]n3)cc2)CC1 [Example 5, hydrochloride]
value units: nM
IC50: 11
--
molecule: CC(=O)Nc1ccccc1-c1ccc(C[C@H](NC(=O)[C@H]2CC[C@H](CN)CC2)C(=O)Nc2ccc(-c3nn[nH]n3)cc2)cc1 [Example 13, hydrochloride]
value units: nM
IC50: 4
--
molecule: NC[C@H]1CC[C@H](C(=O)N[C@@H](Cc2ccc(-c3ccccc3S(=O)(=O)N3CCOCC3)cc2)C(=O)Nc2ccc(-c3nn[nH]n3)cc2)CC1 [Example 1, hydrochloride]
value units: nM
IC50: 1.9
